# Test name: chemical genetic growth profiling, strain panel (AID 1159580);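 also: tested at 20 µM; growth read once vehicle control cultures reached saturation at 30 °C; 1 = growth at the plate median or of vehicle wells; lower values mean less growth of the strain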
# Protocol conditions: S. cerevisiae deletion strains, growth OD, locus YKR026C, strain gcn3, active compounds read low
Screen size: about 5,500 compounds; about 2,000 (36%) were called active. Not shown: some 18% with an inconclusive outcome. The list shows a part of the results.
I'd appreciate it if you could supply normalized growth values for the items below.
Numbers only.

[
  {
    "Molecule": "C[N+]1(C)C2CC[C@H]1CC(OC(=O)C(O)c1ccccc1)C2 (stereo partly specified)",
    "Recorded number": 0.999
  },
  {
    "Molecule": "O=C(O)c1cc2cc(Cl)ccc2[nH]1",
    "Recorded number": 0.963
  },
  {
    "Molecule": "O=c1[nH]cnc2nc[nH]c12",
    "Recorded number": 1.02
  },
  {
    "Molecule": "CCS(=O)(=O)CCn1c([N+](=O)[O-])cnc1C",
    "Recorded number": 0.984
  },
  {
    "Molecule": "CC(=O)O[C@@H]1CC2C(C)(C)[C@H](O)C[C@H](O)[C@]2(C)C2CC[C@@]3(C)C(=CC(=O)O[C@H]3c3ccoc3)[C@@]21C (stereo partly specified)",
    "Recorded number": 0.989
  },
  {
    "Molecule": "C=C(C)c1cc2cc(C(C)=O)c(O)cc2o1",
    "Recorded number": 0.966
  }
]

Provide each entry's normalized growth from the list below.
1. NCCS
2. c1coc(CNc2ncnc3nc[nH]c23)c1
3. Nc1ncnc2nc[nH]c12
4. COC(=O)C1=CO[C@@H](O[C@@H]2O[C@H](CO)[C@@H](O)[C@H](O)[C@H]2O)[C@@H]2[C@@H](C)[C@@H](O)C[C@H]12
5. CCC(=O)O[C@H]1CCC2C3CCc4cc(O)ccc4C3CC[C@@]21C (stereo partly specified)

Out:
[0.947, 0.999, 0.996, 0.997, 0.971]

Data origin, for the record: PubChem BioAssay AID1159580
